- Tested on: C. elegans
- Procedure Text: microbe, parasite or virus in culture
- Condition Parameters: Caenorhabditis elegans, 0 h, read-out: Percentage of motility inhibition 0 h, Table S2, C. elegans SS assay, 110 μM, 0 h, averages of 4 data points
The compounds listed here are annotated with their inhibition at 110 µM.
Note: unit % is implicit; provide only the numeric part.

Sample answers from the record:
{"Compound": "COc1ccc(-c2coc3cc(O)ccc3c2=O)cc1 [Formononetin]", "Result Unit": "%", "inhibition at 110 µM": 6}
{"Compound": "O=C(CBr)N1CC([N+](=O)[O-])([N+](=O)[O-])C1 [RRx‐001]", "Result Unit": "%", "inhibition at 110 µM": 19}

Per the record, C[C@@H]1CC[C@]2(C(=O)O)CC[C@]3(C)C(=CC[C@@H]4[C@@]5(C)CC[C@H](O)C(C)(C)[C@@H]5CC[C@]43C)[C@@H]2[C@]1(C)O [Pomolic acid] has inhibition at 110 µM of 29

Per the record, O=Cc1ccc[nH]1 [Pyrrole‐2‐carboxaldehyde] has inhibition at 110 µM of 0

Per the record, C[C@@H](O)[C@H]1C(=O)N2C(C(=O)[O-])=C(SC3Cn4cnc[n+]4C3)[C@H](C)[C@H]12 (stereo partly drawn) [Biapenem] has inhibition at 110 µM of 18
